Data origin: PubChem BioAssay (NCI)

Tested on: MDA-MB-468 breast
measurement protocol: NCI-60 one-dose screen, 48 h
condition notes: 10 µM unless noted
This is part of a sample that, as a whole, favours compounds with a hit. Of some 83,000 tested, about 20% had one in any assay. Calls of active or inactive are those of the source. Rule for the calls: active = growth percent below 10; inactive = the rest.
Write down one outcome, taken from active, inactive

Hi team, can someone confirm the assay call for C[C@H](c1nc2ccc(C#N)cc2[nH]1)[C@H]1CC[C@H]2[C@@H]3CCC4=CC(=O)CC[C@]4(C)[C@H]3CC[C@]12C ? inactive

Param item: O=C(Nc1ccc2ncnc(Nc3cccc(C(F)(F)F)c3)c2c1)c1cccs1 active

Param item: COc1ccc(-c2ccc(-c3ccc(C(=N)N)cn3)o2)cc1Cl active

Param item: COc1cc(NCCCCCN)c2ncccc2c1 inactive

Param item: COc1ccc2c(c1)c(-c1nc(-c3c[nH]c4c(Cl)nccc34)cs1)cn2C active
